assayExplanation: folding stability dG unfold from chymotrypsin proteolysis; higher = more stable
measurementLabel: folding stability dG unfold
Please format your answer as a value with the unit trailing.

// solved cases for folding stability dG unfold follow
{"columns": ["seqText", "reading"],
 "data": [
  ["SAGGSAGGSAGGKTIRFKAKSPEEIAEKIKKGEEILTPDGKPVKITKVEPLPDGSVLITGSAGGSAGGSAGG [r11_48_TrMRF]", "0.588 kcal/mol"],
  ["SAGGSASMTTKRPVSPELRAKVEAAAAAGDPAITVTLPVTLPDGRTVTLTVTKDPTADTFTATVVSSAGGSA [r15_700_JUSTAS]", "0.367 kcal/mol"],
  ["SAGGSAGGLEIVLPREELEELIRRGEIDEVEIERSEDDLVRARPIIRPPPPLPPEVGALLRALASAGGSAGG [r6_278_TrMRF]", "1.91 kcal/mol"]
]}

stdin: Returns the measured folding stability dG unfold for the input sequence. Input: SAGGMTITIPPSVPDADVERIVEEAEATFPQPVTLTRDPGRGRWTLTFDGPEDERREAIEALAARLASAGGS [r16_227_JUSTAS]
stdout: 0.565 kcal/mol

stdin: Returns the measured folding stability dG unfold for the input sequence. Input: SAGGSAGGSAGGTLEAIKELAKDMPPGDKNIPIKIPDGKPYTIDVEMDPDGKMEIDIEPSAGGSAGGSAGGS [r10_1017_TrROS]
stdout: -0.634 kcal/mol

stdin: Returns the measured folding stability dG unfold for the input sequence. Input: SAGGSAGGSAGMVVVERTSAPDPDKPTSYWFYTKTTFFPDGSVLSETKKFPSPAELEKATSAGGSAGGSAGG [r11_792_JUSTAS]
stdout: 1.07 kcal/mol

stdin: Returns the measured folding stability dG unfold for the input sequence. Input: SAGGSAGGSAGGAMAPDEPVERVEVTYKTGRLTFPGKPVLKKEKVVLKFTLTVTDPALLSAGGSAGGSAGGS [r10_745_JUSTAS]
stdout: -0.0228 kcal/mol

stdin: Returns the measured folding stability dG unfold for the input sequence. Input: SAGPTIMIPMPPKESLEEAVEKAIEWIREFFPDNLKPGKKIKIFVHVWDPDNGKQYWVTIEIPIPKGELSAG [r5_916_TrROS]
stdout: 3.62 kcal/mol

stdin: Returns the measured folding stability dG unfold for the input sequence. Input: SAGGSAWMTLEEFIKEAAKNFPPGREKEIWIRHPGYVFKIDIRVTGPGQVKIKIDKIVPFPDGEPISAGGSA [r15_150_TrROS]
stdout: 2.88 kcal/mol

stdin: Returns the measured folding stability dG unfold for the input sequence. Input: SAGGPKKRKWVTFTIDIYIPTPPGQSIEDEARKLAENLGIEITDVEVEPHPNGMVKIDVTVTIWIPYSAGGS [r8_292_TrROS]
stdout: 4.37 kcal/mol

stdin: Returns the measured folding stability dG unfold for the input sequence. Input: SAGGMEFEFTREDGRKTRVELEVNPETGEVTEKIYVGGKLLYTFKDGELKYIPDEVAAARIEARLPPESAGG [r13_958_TrMRF]
stdout: 1.84 kcal/mol

stdin: Returns the measured folding stability dG unfold for the input sequence. Input: SAGGSAGGSAGGMKPGEVVLIYVERSYYDPEKGPLTPRNARYELLNYKPLPLKPKDPKVLSAGGSAGGSAGG [r7_522_JUSTAS]
stdout: -0.3 kcal/mol

stdin: Returns the measured folding stability dG unfold for the input sequence. Input: SAGGSPNFRIHIEGPEGKTLQYPVDPGFNKPDIQDWLQELGNIEIDQHPNDGWITIRIPKDALDQFSAGGSA [r2_164_TrROS]
stdout: 0.0882 kcal/mol

stdin: Returns the measured folding stability dG unfold for the input sequence. Input: SAGGMKKITIPMKVLEEKFGIPKNTSPEELAKKLNPKEKVEVLSVTSEKSENGEENPTVTVLVIPPKESAGG [r13_723_TrMRF]
stdout: 0.0873 kcal/mol

stdin: Returns the measured folding stability dG unfold for the input sequence. Input: SAGGSAGRVRVELELEIVVDTPEEARALAEELARRFPSIVRVEVEVRRRPDGRLVVRVRLEVELPPSAGGSA [r15_726_TrROS_Hall]
stdout: 3.32 kcal/mol

###

Attribute: folding stability dG unfold
assayExplanation: folding stability dG unfold from chymotrypsin proteolysis; higher = more stable
# number only, unit kcal/mol dropped from output

// solved cases for folding stability dG unfold follow
{"columns": ["seqText", "reading"],
 "data": [
  ["SAMLPEGERKPFLVKVKIETPEGTPEFEAPVITEPPQKIHVSIDFDIPEGEHKIKIEFFGPKLEFEFDISAG [r14_280_TrMRF]", 2.42],
  ["SAGGSAGGDVVIIPEPSEEDKMIFTIVADGEEAPVVLTVEADNLADVVDFLKEHGLAAGHPDDGSAGGSAGG [r6_40_TrMRF]", 0.637],
  ["SAGGKKKKKVKIKIEIAIVIPEEDLSEEERKKLAEELAERLKRELAEKLGLSEDEIEEIEVTVYRLPPSAGG [r13_5_TrROS_Hall]", 2.33],
  ["SFEIEILDVDPDGWIVITIRYPSPDGKPLTPEEMEEIAEEIALELFPQFPDFKVTIEHDPESGTITIVIRSA [r9_485_TrROS]", 3.59],
  ["SAGGSAGGSMVLNFEDTKPGVSPEEAAARVAAKIRAEHDVAVLGVEVETSPTGGYHITITVDPSAGGSAGGS [r12_781_JUSTAS]", 0.272]
]}

stdin: Returns the measured folding stability dG unfold for the input sequence. Input: SKIKIEVDEETGVITVTVEVDNLSEEEILDKLKEELEKLGFEVEVKVVKIEEVNGKVVVTVEIKIKPEKLSA [r9_347_TrROS_Hall]
stdout: 0.9

stdin: Returns the measured folding stability dG unfold for the input sequence. Input: SAGPWITIPFKVKSLEEARNIIREIAQTFGLPMKVEDIQVTEDQLEKNREPGDPIRITVRYPNGREIEISAG [r5_503_TrROS]
stdout: 1.69

###

assayExplanation: folding stability dG unfold (combined trypsin and chymotrypsin); higher = more stable
Attribute: folding stability dG unfold

// solved cases for folding stability dG unfold follow
{"columns": ["seqText", "folding stability dG unfold"],
 "data": [
  ["SAGGMSALRIVAENLPEDARVVLPDGRVFPPGVELELPLEADLDVVVALDEDGRVHHVERVPLDRPLLSAGG [r13_441_TrMRF]", "-0.389 kcal/mol"],
  ["SAGGSAGGSAAPEALPPRLVVPRPVLIVDKAPLEEVEVEELRKAAEEFARAVPDAVVLVDEESAGGSAGGSA [r18_499_TrMRF]", "0.0223 kcal/mol"],
  ["SAGGMTKPTSSPSPLDPSTPPEEWIAAIEKELPPDWRIVEPRPRPGPRLVTVLAEDPNSGKRVILRASAGGS [r16_250_JUSTAS]", "< -1 kcal/mol"],
  ["SASITIPVDELKDFAEHFPGFNVGVNPETGMFQIFFPENGWMINIDIEVDPDDPDTIEIDIEIYPMPPNSAG [r14_604_TrROS]", "2.57 kcal/mol"],
  ["SAGGKKYKVIKEIEITLENGKKIKIKLIEYNEKTNEYILEITYPDGKKITITVPKGMSIEEALKKLLSSAGG [r13_470_TrROS_Hall]", "2.41 kcal/mol"],
  ["SAGGSAGGSASIEVAAPPDATVTITTEITRKLPAGAKLPNGVVASADETLKETVTTTITVLGSAGGSAGGSA [r18_450_JUSTAS]", "0.364 kcal/mol"]
]}

Now consider a different sequence.
stdin: Returns the measured folding stability dG unfold for the input sequence. Input: SAGGSAGGSAGGSGMEEIEEKMKKGYTFTVTSSSPNKTYTIKPEEVSKFKDESISVKAESAGGSAGGSAGGS [r4_157_JUSTAS]
stdout: < -1 kcal/mol

###

assayExplanation: folding stability dG unfold (combined trypsin and chymotrypsin); higher = more stable
measurementLabel: folding stability dG unfold (kcal/mol)
# number only, unit kcal/mol dropped from output

// solved cases for folding stability dG unfold follow
{"columns": ["seqText", "folding stability dG unfold [kcal/mol]"],
 "data": [
  ["SAGGSAGGSAMKILSVTEEVLPNGTRVVRVTVKLPTPKTREIVVSPEVVEAGRLDEVVEELLSAGGSAGGSA [r18_129_JUSTAS]", 1.66],
  ["SAGGPKPILILPKNGKTETIPVPESMTLEEIIEIVKKAAEKYGFEKISYDPEKKVVTVYLKGKVIVTGSAGG [r13_572_TrMRF]", 2.27],
  ["SAGGSAGGSAKEFVAKVITPDGKPFTIPFGGETEEEAIEKLKEAIKKAFPEYKGVKIELEEKSAGGSAGGSA [r18_434_TrMRF]", 0.791],
  ["SAETRTLTIRIPAKDLTPEQIRALLRALLPEDATITEVRIERDEDGYITVTIVVTNPDGSKQEIRLVFPSAG [r14_30_TrROS_Hall]", 2.6]
]}

stdin: Returns the measured folding stability dG unfold for the input sequence. Input: SAGPPKTRTVMFPPEDIPKILEELKKLPPDITIHFPDPDPGNWFMIEVTDDEIKIENPGNGEERTIPISAGG [r19_154_TrROS]
stdout: 0.0412

stdin: Returns the measured folding stability dG unfold for the input sequence. Input: SAGGSAMLVIEIEVDGKKVTLVIEVPPEMTEEEIRELAEELAERLRALPGVKEVKVKIERVPPPPESAGGSA [r15_246_TrROS_Hall]
stdout: 3.85

stdin: Returns the measured folding stability dG unfold for the input sequence. Input: SAGGKYTFTPAPPNSESEVVKKAEELKKKLAEEPGVDKKIEIEIKPSPDGSLTIKVTFSTGTYDAAASAGGS [r16_356_JUSTAS]
stdout: 0.942

stdin: Returns the measured folding stability dG unfold for the input sequence. Input: SAGGSAGGEYEISIPNYELTEEKFDPNPGLLTVTYKDPEGKLVTITYKVKPDSIEKVKTETFEPSAGGSAGG [r6_719_JUSTAS]
stdout: 0.963

stdin: Returns the measured folding stability dG unfold for the input sequence. Input: SMKEKALEKAKEKAEEIKKKYSNVKVKVEVKVEITPKGEIKITYKVVIEKPEKEKPYWVKYPNGPWKKIGSA [r9_82_JUSTAS]
stdout: 1.5

stdin: Returns the measured folding stability dG unfold for the input sequence. Input: SAGGDEDKPKPKIEPKKEIEIVLPYPEDEVTPEELKARIEEETGEKITEIEVTRIPNSNEYKVKFTVESAGG [r13_457_JUSTAS]
stdout: 0.577

stdin: Returns the measured folding stability dG unfold for the input sequence. Input: SMKITATETPVGDKTTVTITVTIDPKEFPNKPPTEEFYKKIAEELMKKLGLKTYNISKTSSNTYTITIVDSA [r9_883_JUSTAS]
stdout: 2.5

stdin: Returns the measured folding stability dG unfold for the input sequence. Input: SAGGMPPVVLEYEIDIKPDPNETLEDVLEKAEEFVEELKEAFPELDLKEVKVEVDPEKGKVKITVVFPSAGG [r13_1011_TrMRF]
stdout: 1.92
